Kindly state Activity for each of the entries shown.
# System: Plasmodium yoelii nigeriensis
# procedure_text: Antimalarial activity in multidrug-resistant Plasmodium yoelii nigeriensis infected Swiss mouse assessed as suppression of parasitaemia at 96 mg/kg, po two devided dose daily for 4 days
# Type: functional
# condition_parameters: 96 mg/kg
Entry rule: numbers only, all in %.

Recorded result, C=C(c1ccc(Cl)cc1)[C@@H]1CO[C@@]2(CC[C@@]3(C)[C@H](CC[C@@H]4[C@@H]3CC[C@]3(C)[C@@H](C(C)=O)CC[C@@H]43)C2)OO1 (relative stereo; form 1) , Activity: 90.98

Value of Activity reported for the compound C=C(c1ccc(F)cc1)[C@@H]1CO[C@@]2(CC[C@@]3(C)[C@H](CC[C@@H]4[C@@H]3CC[C@]3(C)[C@@H]([C@H](C)C(C)=O)CC[C@@H]43)C2)OO1 (relative stereo; form 1) is 86.26

C=C(c1ccc(Cl)cc1)[C@@H]1CO[C@@]2(CC[C@@]3(C)[C@H](CC[C@@H]4[C@@H]3CC[C@]3(C)[C@@H]([C@H](C)C(C)=O)CC[C@@H]43)C2)OO1 (relative stereo; form 2) has a reported Activity of 34.65

get_value(item= C=C(c1ccccc1)[C@@H]1CO[C@@]2(CC[C@@]3(C)[C@H](CC[C@@H]4[C@@H]3CC[C@]3(C)[C@@H](O)CC[C@@H]43)C2)OO1 (relative stereo; form 1) , readout=Activity) returns 69.36

In plain terms, C=C(c1ccc(Br)cc1)[C@@H]1CO[C@@]2(CC[C@@]3(C)[C@H](CC[C@@H]4[C@@H]3CC[C@]3(C)[C@@H](C(C)=O)CC[C@@H]43)C2)OO1 (relative stereo; form 1) has a documented Activity of 100

* * *

# procedure_text: Lipophilicity, log P of the compound
# Format: physicochemical
# condition_parameters: octanol/water
measure_name: logP
Output spec: single numeric token, no unit.

Short answer for C=C(c1ccc(Cl)cc1)[C@@H]1CO[C@@]2(CC[C@@]3(C)[C@H](CC[C@@H]4[C@@H]3CC[C@]3(C)[C@@H](C(C)=O)CC[C@@H]43)C2)OO1 (relative stereo; form 2) : logP was 7.76

For reference, reported logP for C=C(c1ccc(Br)cc1)[C@@H]1CO[C@@]2(CC[C@@]3(C)[C@H](CC[C@@H]4[C@@H]3CC[C@]3(C)[C@@H](O)CC[C@@H]43)C2)OO1 (relative stereo; form 2) stands at 7.27

For reference, reported logP for C=C(c1ccc(Br)cc1)[C@@H]1CO[C@@]2(CC[C@@]3(C)[C@H](CC[C@@H]4[C@@H]3CC[C@]3(C)[C@@H](C(C)=O)CC[C@@H]43)C2)OO1 (relative stereo; form 1) stands at 8.03

Value of measured logP for the entry C=C(c1ccc(F)cc1)[C@@H]1CO[C@@]2(CC[C@@]3(C)[C@H](CC[C@@H]4[C@@H]3CC[C@]3(C)[C@@H](C(C)=O)CC[C@@H]43)C2)OO1 (relative stereo; form 2) : 7.36

What the record says about C=C(c1ccc(F)cc1)[C@@H]1CO[C@@]2(CC[C@@]3(C)[C@H](CC[C@@H]4[C@@H]3CC[C@]3(C)[C@@H](O)CC[C@@H]43)C2)OO1 (relative stereo; form 2) : logP is 6.66

Briefly, logP measured for C=C(c1ccccc1)[C@@H]1CO[C@@]2(CC[C@@]3(C)[C@H](CC[C@@H]4[C@@H]3CC[C@]3(C)[C@@H](C(C)=O)CC[C@@H]43)C2)OO1 (relative stereo; form 2) : 7.2

response.value for C=C(c1ccccc1)[C@@H]1CO[C@@]2(CC[C@@]3(C)[C@H](CC[C@@H]4[C@@H]3CC[C@]3(C)[C@@H](O)CC[C@@H]43)C2)OO1 (relative stereo; form 2) (field: logP) = 6.44

* * *

# System: Plasmodium yoelii nigeriensis
# procedure_text: Antimalarial activity in multidrug-resistant Plasmodium yoelii nigeriensis infected Swiss mouse assessed as suppression of parasitaemia at 96 mg/kg, po two devided dose daily for 4 days
# Type: functional
# condition_parameters: 96 mg/kg
Kindly supply the reported Activity values for the records listed here.
Express the result in % but write the number alone.

The compound C=C(c1ccc(Br)cc1)[C@@H]1CO[C@@]2(CC[C@@]3(C)[C@H](CC[C@@H]4[C@@H]3CC[C@]3(C)[C@@H]([C@H](C)C(C)=O)CC[C@@H]43)C2)OO1 (relative stereo; form 2) on Plasmodium yoelii nigeriensis: Activity was 41.83

Value sought: Activity, system Plasmodium yoelii nigeriensis, item C=C(c1ccc(Cl)cc1)[C@@H]1CO[C@@]2(CC[C@@]3(C)[C@H](CC[C@@H]4[C@@H]3CC[C@]3(C)[C@@H]([C@H](C)CCC(=O)OC)CC[C@@H]43)C2)OO1 (relative stereo; form 1) . Result: 56.02
